// data source = ChEMBL document CHEMBL1649319

Assign MIC90 to each entry below.
- Tested on: Magnusiomyces capitatus
- PROTOCOL_DETAILS: Antifungal activity against Dipodascus capitatus after 48 hrs by broth microdilution method
- Assay type: functional
Report only the number, with the unit µg/mL understood.

Missing value: MIC90, Magnusiomyces capitatus, entry "C[C@@H](c1ncncc1F)[C@](O)(Cn1cncn1)c1ccc(F)cc1F" . Fill in?
0.25

Please give the result for "OC(Cn1cncn1)(Cn1cncn1)c1ccc(F)cc1F" too.
16

Please give the result for "C[C@@H](c1nc(-c2ccc(C#N)cc2)cs1)[C@](O)(Cn1cncn1)c1cc(F)ccc1F" too.
0.5

Please give the result for "CC[C@@H]([C@H](C)O)n1ncn(-c2ccc(N3CCN(c4ccc(OC[C@@H]5CO[C@@](Cn6cncn6)(c6ccc(F)cc6F)C5)cc4)CC3)cc2)c1=O" too.
0.5

====

Assign MIC90 to each entry below.
- PROTOCOL_DETAILS: Antifungal activity against Trichosporon jirovecii after 48 hrs by Etest
- Assay type: functional
- CONDITION_CONTEXT: Cutaneotrichosporon jirovecii
Report only the number, with the unit µg/mL understood.

Report MIC90 for "CC[C@@H]([C@H](C)O)n1ncn(-c2ccc(N3CCN(c4ccc(OC[C@@H]5CO[C@@](Cn6cncn6)(c6ccc(F)cc6F)C5)cc4)CC3)cc2)c1=O" please.
0.5

Please give the result for "C[C@@H](c1nc(-c2ccc(C#N)cc2)cs1)[C@](O)(Cn1cncn1)c1cc(F)ccc1F" too.
0.125

Please give the result for "C[C@@H](c1ncncc1F)[C@](O)(Cn1cncn1)c1ccc(F)cc1F" too.
0.125

Please give the result for "OC(Cn1cncn1)(Cn1cncn1)c1ccc(F)cc1F" too.
4

====

- Test system: Trichosporon asahii
- PROTOCOL_DETAILS: Antifungal activity against Trichosporon asahii after 48 hrs by Etest
- Format: functional
EXPERIMENTAL_ENDPOINT: MIC90 (µg/mL)
Report only the number, with the unit µg/mL understood.

Missing value: MIC90, Trichosporon asahii, entry C[C@@H](c1ncncc1F)[C@](O)(Cn1cncn1)c1ccc(F)cc1F [VORICONAZOLE] . Fill in?
0.125

Please give the result for C[C@@H](c1nc(-c2ccc(C#N)cc2)cs1)[C@](O)(Cn1cncn1)c1cc(F)ccc1F [ISAVUCONAZOLE] too.
0.125

Please give the result for OC(Cn1cncn1)(Cn1cncn1)c1ccc(F)cc1F [FLUCONAZOLE] too.
4

Please give the result for CC[C@@H]([C@H](C)O)n1ncn(-c2ccc(N3CCN(c4ccc(OC[C@@H]5CO[C@@](Cn6cncn6)(c6ccc(F)cc6F)C5)cc4)CC3)cc2)c1=O [POSACONAZOLE] too.
0.5

====

Assign MIC50 to each entry below.
- Tested on: Cutaneotrichosporon mucoides
- PROTOCOL_DETAILS: Antifungal activity against Trichosporon mucoides after 48 hrs by Etest
- Assay type: functional
Report only the number, with the unit µg/mL understood.

Report MIC50 for C[C@@H](c1ncncc1F)[C@](O)(Cn1cncn1)c1ccc(F)cc1F [VORICONAZOLE] please.
0.03

Please give the result for OC(Cn1cncn1)(Cn1cncn1)c1ccc(F)cc1F [FLUCONAZOLE] too.
1

Please give the result for CC[C@@H]([C@H](C)O)n1ncn(-c2ccc(N3CCN(c4ccc(OC[C@@H]5CO[C@@](Cn6cncn6)(c6ccc(F)cc6F)C5)cc4)CC3)cc2)c1=O [POSACONAZOLE] too.
0.125

Please give the result for C[C@@H](c1nc(-c2ccc(C#N)cc2)cs1)[C@](O)(Cn1cncn1)c1cc(F)ccc1F [ISAVUCONAZOLE] too.
0.06

====

Assign MIC50 to each entry below.
- Tested on: Magnusiomyces capitatus
- PROTOCOL_DETAILS: Antifungal activity against Dipodascus capitatus after 3 days by broth microdilution method
- Type: functional
- CONDITION_CONTEXT: 72 h
Report only the number, with the unit µg/mL understood.

Report MIC50 for "CC[C@@H]([C@H](C)O)n1ncn(-c2ccc(N3CCN(c4ccc(OC[C@@H]5CO[C@@](Cn6cncn6)(c6ccc(F)cc6F)C5)cc4)CC3)cc2)c1=O" please.
0.125

Please give the result for "OC(Cn1cncn1)(Cn1cncn1)c1ccc(F)cc1F" too.
4

Please give the result for "C[C@@H](c1ncncc1F)[C@](O)(Cn1cncn1)c1ccc(F)cc1F" too.
0.06

Please give the result for "C[C@@H](c1nc(-c2ccc(C#N)cc2)cs1)[C@](O)(Cn1cncn1)c1cc(F)ccc1F" too.
0.06

====

- Tested on: Saccharomyces cerevisiae
- PROTOCOL_DETAILS: Antifungal activity against Saccharomyces cerevisiae after 48 hrs by broth microdilution method
- Format: functional
EXPERIMENTAL_ENDPOINT: MIC90 (µg/mL)
Report only the number, with the unit µg/mL understood.

Report MIC90 for "OC(Cn1cncn1)(Cn1cncn1)c1ccc(F)cc1F" please.
16

Please give the result for "CC[C@@H]([C@H](C)O)n1ncn(-c2ccc(N3CCN(c4ccc(OC[C@@H]5CO[C@@](Cn6cncn6)(c6ccc(F)cc6F)C5)cc4)CC3)cc2)c1=O" too.
2

Please give the result for "C[C@@H](c1nc(-c2ccc(C#N)cc2)cs1)[C@](O)(Cn1cncn1)c1cc(F)ccc1F" too.
0.5

Please give the result for "C[C@@H](c1ncncc1F)[C@](O)(Cn1cncn1)c1ccc(F)cc1F" too.
0.25

====

- Test system: Magnusiomyces capitatus
- PROTOCOL_DETAILS: Antifungal activity against Dipodascus capitatus after 48 hrs by broth microdilution method
- Format: functional
EXPERIMENTAL_ENDPOINT: MIC50 (µg/mL)
Report only the number, with the unit µg/mL understood.

Report MIC50 for C[C@@H](c1nc(-c2ccc(C#N)cc2)cs1)[C@](O)(Cn1cncn1)c1cc(F)ccc1F [ISAVUCONAZOLE] please.
0.06

Please give the result for C[C@@H](c1ncncc1F)[C@](O)(Cn1cncn1)c1ccc(F)cc1F [VORICONAZOLE] too.
0.06

Please give the result for CC[C@@H]([C@H](C)O)n1ncn(-c2ccc(N3CCN(c4ccc(OC[C@@H]5CO[C@@](Cn6cncn6)(c6ccc(F)cc6F)C5)cc4)CC3)cc2)c1=O [POSACONAZOLE] too.
0.125

Please give the result for OC(Cn1cncn1)(Cn1cncn1)c1ccc(F)cc1F [FLUCONAZOLE] too.
4

====

- Test system: Saccharomyces cerevisiae
- PROTOCOL_DETAILS: Antifungal activity against Saccharomyces cerevisiae after 48 hrs by Etest
- Type: functional
EXPERIMENTAL_ENDPOINT: MIC50 (µg/mL)
Report only the number, with the unit µg/mL understood.

Report MIC50 for "OC(Cn1cncn1)(Cn1cncn1)c1ccc(F)cc1F" please.
4

Please give the result for "C[C@@H](c1nc(-c2ccc(C#N)cc2)cs1)[C@](O)(Cn1cncn1)c1cc(F)ccc1F" too.
0.125

Please give the result for "CC[C@@H]([C@H](C)O)n1ncn(-c2ccc(N3CCN(c4ccc(OC[C@@H]5CO[C@@](Cn6cncn6)(c6ccc(F)cc6F)C5)cc4)CC3)cc2)c1=O" too.
2

Please give the result for "C[C@@H](c1ncncc1F)[C@](O)(Cn1cncn1)c1ccc(F)cc1F" too.
0.03

====

Assign MIC50 to each entry below.
- PROTOCOL_DETAILS: Antifungal activity against Trichosporon jirovecii after 48 hrs by Etest
- Format: functional
- CONDITION_CONTEXT: Cutaneotrichosporon jirovecii
Report only the number, with the unit µg/mL understood.

Report MIC50 for C[C@@H](c1ncncc1F)[C@](O)(Cn1cncn1)c1ccc(F)cc1F [VORICONAZOLE] please.
0.03

Please give the result for OC(Cn1cncn1)(Cn1cncn1)c1ccc(F)cc1F [FLUCONAZOLE] too.
1

Please give the result for CC[C@@H]([C@H](C)O)n1ncn(-c2ccc(N3CCN(c4ccc(OC[C@@H]5CO[C@@](Cn6cncn6)(c6ccc(F)cc6F)C5)cc4)CC3)cc2)c1=O [POSACONAZOLE] too.
0.125

Please give the result for C[C@@H](c1nc(-c2ccc(C#N)cc2)cs1)[C@](O)(Cn1cncn1)c1cc(F)ccc1F [ISAVUCONAZOLE] too.
0.06

====

- Tested on: Rhodotorula mucilaginosa
- PROTOCOL_DETAILS: Antifungal activity against Rhodotorula mucilaginosa after 7 days by broth microdilution method
- Assay type: functional
- CONDITION_CONTEXT: 168 h
EXPERIMENTAL_ENDPOINT: MIC90 (µg/mL)
Report only the number, with the unit µg/mL understood.

Report MIC90 for C[C@@H](c1nc(-c2ccc(C#N)cc2)cs1)[C@](O)(Cn1cncn1)c1cc(F)ccc1F [ISAVUCONAZOLE] please.
2

Please give the result for C[C@@H](c1ncncc1F)[C@](O)(Cn1cncn1)c1ccc(F)cc1F [VORICONAZOLE] too.
8

Please give the result for CC[C@@H]([C@H](C)O)n1ncn(-c2ccc(N3CCN(c4ccc(OC[C@@H]5CO[C@@](Cn6cncn6)(c6ccc(F)cc6F)C5)cc4)CC3)cc2)c1=O [POSACONAZOLE] too.
8
